Readings of cell count for the listed compounds
# method notes: inhibitors of TNFa-induced NFkB p65 translocation, primary screen, imaging, HUVEC, MLSMR starter and 10KST1 sets (AID 438);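 note: compound added about 3h40 before a 20 min TNFalpha stimulation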
# measurement parameters: HUVEC TNFa-induced p65 nuclear translocation; measured here: nuclei count (cytotoxicity indicator), at 2.08 µM
Number only, no unit.

Q: Please give the measured cell count for this compound: CC1=C(C(=O)NCc2ccccc2)C(c2ccccc2OCC(N)=O)NC(=O)N1 (configuration not stated)
Ans: 355

Q: Please give the measured cell count for this compound: `CCOc1ccc(S(=O)(=O)N2CCN(C(=O)c3cccn3C)CC2)cc1`
Ans: 431

Q: Please give the measured cell count for this compound: `c1ccc(OCc2nc(-c3ccccc3)no2)cc1`
Ans: 300
